Could you please report measured relative viability for the items listed next?
- System: NCI-H1734
- Assay Text: relative viability (nuclei count vs DMSO), 5 days (fraction); higher = more cells survive
- Experimental Setup: first compound 0.1581 µM

- CC1(C)CCC(c2ccc(Cl)cc2)=C(CN2CCN(c3ccc(C(=O)NS(=O)(=O)c4ccc(N[C@H](CCN5CCOCC5)CSc5ccccc5)c(S(=O)(=O)C(F)(F)F)c4)cc3)CC2)C1 [Navitoclax] + O=C(CCCCCCC(=O)Nc1ccccc1)NO [Vorinostat] (partner 1 µM): 0.755

What measured relative viability goes with CC1(C)CCC(c2ccc(Cl)cc2)=C(CN2CCN(c3ccc(C(=O)NS(=O)(=O)c4ccc(N[C@H](CCN5CCOCC5)CSc5ccccc5)c(S(=O)(=O)C(F)(F)F)c4)cc3)CC2)C1 [Navitoclax] + CCNC(=O)c1noc(-c2cc(C(C)C)c(O)cc2O)c1-c1ccc(CN2CCOCC2)cc1 [Luminespib] (partner 0.01 µM) ?
0.182

###

- Test system: NCI-H2009
- Assay Text: relative viability (nuclei count vs DMSO), 5 days (fraction); higher = more cells survive
- Experimental Setup: first compound 0.03162 µM
Quantity Kind: relative viability
Numbers only.

• NC(=O)Nc1cc(-c2cccc(F)c2)sc1C(=O)N[C@H]1CCCNC1 [AZD7762] + Cc1nc(NC(=O)N2CCC[C@H]2C(N)=O)sc1-c1ccnc(C(C)(C)C(F)(F)F)c1 [Alpelisib] (partner 2 µM) = 1.15
• NC(=O)Nc1cc(-c2cccc(F)c2)sc1C(=O)N[C@H]1CCCNC1 [AZD7762] + C[C@]1(O)C[C@@H](c2nc(-c3ccc4ccc(-c5ccccc5)nc4c3)c3c(N)nccn32)C1 [Linsitinib] (partner 1 µM) = 1.18
• NC(=O)Nc1cc(-c2cccc(F)c2)sc1C(=O)N[C@H]1CCCNC1 [AZD7762] + Cc1cc(Nc2cc(N3CCN(C)CC3)nc(Sc3ccc(NC(=O)C4CC4)cc3)n2)n[nH]1 [Tozasertib] (partner 0.1 µM) = 0.703
• NC(=O)Nc1cc(-c2cccc(F)c2)sc1C(=O)N[C@H]1CCCNC1 [AZD7762] + CC(C)C[C@H](NC(=O)[C@H](Cc1ccccc1)NC(=O)c1cnccn1)B(O)O [Bortezomib] (partner 0.002 µM) = 1.13
• NC(=O)Nc1cc(-c2cccc(F)c2)sc1C(=O)N[C@H]1CCCNC1 [AZD7762] + C[C@@H](Oc1cc(-c2cnn(C3CCNCC3)c2)cnc1N)c1c(Cl)ccc(F)c1Cl [Crizotinib] (partner 1 µM) = 1.13

Here's the next entry for you.
Looking for the measured relative viability of NC(=O)Nc1cc(-c2cccc(F)c2)sc1C(=O)N[C@H]1CCCNC1 [AZD7762] + Nc1nc2[nH]cc(CCc3ccc(C(=O)N[C@@H](CCC(=O)O)C(=O)O)cc3)c2c(=O)[nH]1 [Pemetrexed] (partner 0.2 µM) , can you help?
1.02

###

- Test system: UMC-11
- Assay Text: relative viability (nuclei count vs DMSO), 5 days (fraction); higher = more cells survive
- Experimental Setup: first compound 0.3162 µM
Would you mind telling me the reported relative viability of each entry?

- NC(=O)Nc1cc(-c2cccc(F)c2)sc1C(=O)N[C@H]1CCCNC1 [AZD7762] + Cc1cc(Nc2cc(N3CCN(C)CC3)nc(Sc3ccc(NC(=O)C4CC4)cc3)n2)n[nH]1 [Tozasertib] (partner 0.1 µM): 0.194
- NC(=O)Nc1cc(-c2cccc(F)c2)sc1C(=O)N[C@H]1CCCNC1 [AZD7762] + CS(=O)(=O)N1CCN(Cc2cc3nc(-c4cccc5[nH]ncc45)nc(N4CCOCC4)c3s2)CC1 [Pictilisib] (partner 1 µM): 0.679
- NC(=O)Nc1cc(-c2cccc(F)c2)sc1C(=O)N[C@H]1CCCNC1 [AZD7762] + CCNC(=O)c1noc(-c2cc(C(C)C)c(O)cc2O)c1-c1ccc(CN2CCOCC2)cc1 [Luminespib] (partner 0.01 µM): 0.593
- NC(=O)Nc1cc(-c2cccc(F)c2)sc1C(=O)N[C@H]1CCCNC1 [AZD7762] + CC(=O)c1c(C)c2cnc(Nc3ccc(N4CCNCC4)cn3)nc2n(C2CCCC2)c1=O [Palbociclib] (partner 0.5 µM): 0.301

Next, consider the following compound.
Recall the recorded relative viability for NC(=O)Nc1cc(-c2cccc(F)c2)sc1C(=O)N[C@H]1CCCNC1 [AZD7762] + N=C(N)NC(=N)NCCc1ccccc1 [Phenformin] (partner 250 µM) with UMC-11 and state it.
0.25
